This collection of values is drawn from ChEMBL document CHEMBL1201862.

- system: UniProtKB Q6QLK5
- Sequence (Q6QLK5 whole entry, the tested form may be a part): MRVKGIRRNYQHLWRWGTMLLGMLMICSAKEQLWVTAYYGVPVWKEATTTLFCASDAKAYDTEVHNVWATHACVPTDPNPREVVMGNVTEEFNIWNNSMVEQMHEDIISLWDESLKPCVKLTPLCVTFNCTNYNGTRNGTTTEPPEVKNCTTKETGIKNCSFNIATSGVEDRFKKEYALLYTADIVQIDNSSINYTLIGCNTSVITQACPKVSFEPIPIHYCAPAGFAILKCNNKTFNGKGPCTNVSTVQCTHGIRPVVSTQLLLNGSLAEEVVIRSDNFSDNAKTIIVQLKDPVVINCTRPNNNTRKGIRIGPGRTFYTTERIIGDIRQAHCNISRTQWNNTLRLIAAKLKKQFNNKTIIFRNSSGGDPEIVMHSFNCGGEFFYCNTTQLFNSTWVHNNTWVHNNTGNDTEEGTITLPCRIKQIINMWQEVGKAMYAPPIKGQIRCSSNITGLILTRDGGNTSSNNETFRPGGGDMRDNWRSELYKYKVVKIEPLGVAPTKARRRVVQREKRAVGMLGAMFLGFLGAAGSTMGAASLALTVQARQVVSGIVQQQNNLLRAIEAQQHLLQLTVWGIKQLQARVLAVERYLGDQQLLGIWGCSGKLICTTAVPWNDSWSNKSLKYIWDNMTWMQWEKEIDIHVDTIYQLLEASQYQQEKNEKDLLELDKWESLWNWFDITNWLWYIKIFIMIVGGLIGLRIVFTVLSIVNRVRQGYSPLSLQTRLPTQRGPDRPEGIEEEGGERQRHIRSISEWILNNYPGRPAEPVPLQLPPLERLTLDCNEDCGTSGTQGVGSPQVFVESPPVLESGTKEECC
- experimentDescription: cell-free HIV fusion peptide-binding blockers – biochemical, uHTS, fluorescence dequenching, […] (AID 1986)
Activity calls are given as the source filed them. Rule as the data show it: actives have a measured IC50 and inactives only a lower limit.
Listed molecules paired with reported IC50
measuredAttribute: IC50

{"molecule": "O=C(O)c1ccc(/C=N/NC(=O)c2ccc(CN3c4cccc5cccc(c45)S3(=O)=O)cc2)cc1", "measuredAttribute": "IC50", "result": "19.7 µM (active)"}
{"molecule": "CCOc1cc(/C=C2\\C(=O)N(c3cccc(C(=O)O)c3)N=C2C(F)(F)F)ccc1OCC(=O)Nc1ccccc1OC", "measuredAttribute": "IC50", "result": "3.88 µM (active)"}
{"molecule": "O=C(NCCc1ccccc1)c1ccc2c(=O)[nH]c3c(C(=O)NCC4CCCO4)sc(=S)n3c2c1 (centres undefined)", "measuredAttribute": "IC50", "result": "27.8 µM (active)"}
{"molecule": "COc1ccc(-c2cc(-c3ccc(Cl)cc3)c(C#N)c(SCC(=O)O)n2)cc1", "measuredAttribute": "IC50", "result": "19.4 µM (active)"}
